# assay-system: full-length human PKCι (Homo sapiens, UniProt P41743)
# Construct: Recombinant, full-length human PKCι expressed in Sf21 insect cells is also commercially available; purchased; host or cells: Sf21 insect cells
# Sequence (P41743 1-596): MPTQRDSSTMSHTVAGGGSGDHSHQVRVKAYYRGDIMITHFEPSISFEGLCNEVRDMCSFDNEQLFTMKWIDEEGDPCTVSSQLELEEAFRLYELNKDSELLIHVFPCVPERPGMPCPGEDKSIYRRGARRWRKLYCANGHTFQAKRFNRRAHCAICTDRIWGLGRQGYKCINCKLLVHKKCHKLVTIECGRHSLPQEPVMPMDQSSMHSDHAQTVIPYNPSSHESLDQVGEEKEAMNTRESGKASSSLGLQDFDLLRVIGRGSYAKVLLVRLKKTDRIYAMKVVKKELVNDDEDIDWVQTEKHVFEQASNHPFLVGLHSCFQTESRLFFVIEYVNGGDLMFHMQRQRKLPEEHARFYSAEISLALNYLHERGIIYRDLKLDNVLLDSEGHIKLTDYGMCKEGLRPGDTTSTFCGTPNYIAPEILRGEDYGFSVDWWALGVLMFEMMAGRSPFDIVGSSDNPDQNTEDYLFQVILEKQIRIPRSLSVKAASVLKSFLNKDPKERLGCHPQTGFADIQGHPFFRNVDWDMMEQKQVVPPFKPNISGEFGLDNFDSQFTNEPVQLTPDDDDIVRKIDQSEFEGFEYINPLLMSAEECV
# experiment-notes: PKCι IC50 IMAP fluorescence polarisation assay, full-length enzyme
# Assay type: biochemical
# condition: full length PKCi at 15 μM ATP; read-out: IC50 in IMAP assay against full length PKCi
reported-metric: IC50

Reported IC50 (full-length human PKCι (Homo sapiens, UniProt P41743)) for entry CC(C)(O)C#Cc1csc2c(NC[C@@H](N)Cc3ccccc3)nc(-c3ccncc3F)nc12 is 100 to 1000 nM

More entries:
Item: C[C@H](O)C#Cc1csc2c(NC[C@@H](N)Cc3ccccc3)nc(-c3ccncc3)nc12 | System: full-length human PKCι (Homo sapiens, UniProt P41743) | IC50: < 100 nM

# value of IC50, full-length human PKCι (Homo sapiens, UniProt P41743), item c1cc(-c2nc(N[C@@H]3CCNC3)c3sccc3n2)cc(Sc2cc(-c3nc(N[C@@H]4CCNC4)c4sccc4n3)ccn2)n1 = 1000 to 10000 nM

full-length human PKCι (Homo sapiens, UniProt P41743) IC50 of CC(C)Nc1cc(-c2nc(N[C@@H]3CCNC3)c3sccc3n2)ccn1 is 1000 to 10000 nM

###

pIC50 reference
# assay-system: kinase-domain human PKCι (Homo sapiens, UniProt P41743)
# Construct: Recombinant, kinase-domain human PKCι is expressed and purified in-house; made in house
# experiment-notes: PKCι IC50 IMAP fluorescence polarisation assay, kinase-domain enzyme
# Assay type: biochemical
# condition: kinase domain PKCi at 2 μM ATP; read-out: IC50 in IMAP assay against kinase domain PKCi (Activity)
pIC50: −log10 of the molar value.

Solved cases below.
Input CC(C)CN1CCN(c2nc(-c3ccncc3)nc3sc4c(c23)CCCC4)CC1 [compound 134] . Output pIC50: 4.40 to 5.00

For reference, reported pIC50 for Cc1n[nH]c(C)c1-c1nc(NC[C@@H](C)N)c2c3c(sc2n1)CCCC3 [compound 193] stands at 4.40 to 5.00

Lab note: C[C@@H]1CN[C@@H](C)CN1c1nc(-c2ccncc2)nc2sc3c(c12)CCCC3 [compound 10] gave pIC50 of 5.00 to 6.00

Lab note: measured pIC50 of Oc1cccc(CN2CCN(c3nc(-c4ccncc4)nc4sc5c(c34)CCCC5)CC2)c1 [compound 126] was 4.40 to 5.00

# compound c1cc(-c2nc(N3CCNCC3)c3c4c(sc3n2)CCCCC4)ccn1 [compound 85] ; its pIC50 = 6.00 to 7.00

Short answer for NCCNc1nc(-c2ccncc2)nc2sc3c(c12)CCCCCC3 [compound 24] : pIC50 was 6.00 to 7.00

Next:
The compound CCc1cc2c(NC[C@@H](C)N)nc(-c3ccncc3)nc2s1 [compound 35] showed pIC50 equal to 5.00 to 6.00

// recorded pIC50 for COc1ccc(C[C@@H](N)COc2nc(-c3ccncc3)nc3sc4c(c23)CCCC4)cc1 [compound 169] : 4.40 to 5.00

Short answer for N[C@H](CNc1nc(-c2ccncc2)nc2sc3c(c12)CCCCC3)Cc1ccccc1 [compound 87] : pIC50 was 6.00 to 7.00

For record CCc1c(C)sc2nc(-c3ccncc3)nc(NC[C@H](C)N)c12 [compound 31] the listed pIC50 is 5.00 to 6.00

So for Cc1csc2nc(-c3ccncc3)nc(N3CCCNCC3)c12 [compound 95] , the logged pIC50 turned out to be 6.00 to 7.00

The measured pIC50 associated with COc1ccc(C[C@H](N)COc2nc(-c3ccncc3)nc3sc4c(c23)CCCC4)cc1 [compound 159] reads 5.00 to 6.00

CCc1cc2c(NCCN)nc(-c3ccncc3)nc2s1 [compound 33] has a reported pIC50 of 5.00 to 6.00

Summary for this compound, CCc1c(C)sc2nc(-c3ccncc3)nc(NC[C@@H](C)N)c12 [compound 32] : pIC50 is 4.40 to 5.00

pIC50 reading for C[C@H](N)CNc1nc(-c2ccncc2)nc2sc3c(c12)CCCCCC3 [compound 25] : 5.00 to 6.00

Record c1cc(-c2nc(OC[C@@H]3CCCCN3)c3c4c(sc3n2)CCCC4)ccn1 [compound 179] . Reported pIC50: 4.40 to 5.00

// pIC50 value for N[C@H](CNc1nc(-c2cn[nH]c2)nc2sc3c(c12)CCCC3)Cc1ccccc1 [compound 183] : 6.00 to 7.00

The value of pIC50 measured for the compound Clc1ccc(CN2CCN(c3nc(-c4ccncc4)nc4sc5c(c34)CCCC5)CC2)cc1 [compound 122] turned out to be 4.40 to 5.00

Lookup result for Cc1sc2nc(-c3ccncc3)nc(NC[C@H](C)N)c2c1C [compound 37] ; measured pIC50: 5.00 to 6.00

Query NCCNc1nc(-c2ccncc2)nc2sc3c(c12)CCCCC3 [compound 84] yields pIC50 of 6.00 to 7.00

Per the record, Cc1n[nH]c(C)c1-c1nc(NCCN)c2c3c(sc2n1)CCCC3 [compound 182] has pIC50 of 6.00 to 7.00

// pIC50 lookup, compound = N[C@@H](COc1nc(-c2ccncc2)nc2sc3c(c12)CCCC3)Cc1csc2ccccc12 [compound 176] , result: 4.40 to 5.00

The compound CC(C)Cc1csc2nc(-c3ccncc3)nc(NCCN)c12 [compound 28] showed pIC50 equal to 6.00 to 7.00

Record N[C@H](CNc1nc(-c2ccncc2)nc2sc3c(c12)CCCCCC3)Cc1ccccc1 [compound 76] , field pIC50: 6.00 to 7.00
